Tested on: HS 578T breast
protocol: NCI tumour cell line growth inhibition, 48 h
Below is a list of entries, each paired with its recorded TGI value.

compound	readout.unit	relation.operator	TGI
CN(CC(=O)O)c1ccc(/C=C/c2ccnc3ccccc23)cc1	µM	=	75
COc1cc2c3c(n(CCCNCC(OC)OC)c(=O)c2cc1OC)-c1cc2c(cc1C3=O)OCO2	µM	>	29.3
COc1ccc(C/C(C)=C(\c2ccc(OCCN3CCOCC3)cc2)c2ccc(OC(=O)Cc3ccccc3)cc2)cc1	µM	=	1.67
N=c1c2c(-c3ccccc3)c(-c3ccccc3)n(Cc3ccccc3)c2ncn1CCCO	µM	>	55.9
C=C1CC2(C[C@@H](c3ccccc3)O[C@@H](c3ccccc3)C2)OC1=O (stereo not given in full)	µM	=	9.44

###

Test system: BT-549 breast
protocol: NCI tumour cell line growth inhibition, 48 h
Below: a set of entries, each annotated with reported TGI.
property.label: TGI

molecule	obs.value
Cc1ccc2cc3c(ccc4ccccc43)c3c2c1CC3	> 100 µM
CN(CC(=O)O)c1ccc(/C=C/c2ccnc3ccccc23)cc1	70.4 µM
O=C1CCCCC1=C(I)I	26.8 µM
COc1ccc(C(=O)COc2cccc(/C=C3\CSc4ccccc4C3=O)c2)cc1	3.67 µM
CC1=CCC(OC(=O)C(C)(C)CCC(O)(C(=O)OC2(C(C)C)CCC3(C)OC3C2)C(C)C)(C(C)C)CC1 (configuration not stated)	1.51 µM
CN1CCN(c2cc3c(cc2F)c(=O)c(C(=O)O)cn3C2CC2)CC1CC#N (configuration not stated)	> 100 µM
C=CCOc1ccc(/C(N=Nc2ccccc2)=N/NC(=O)c2ccccc2)cc1OC	> 100 µM
Cc1cccc2c(=O)c3c(O)cc(O)cc3[nH]c12	> 10 µM
O=C1Nc2ccccc2C1Cc1ccc([N+](=O)[O-])cc1 (configuration not stated)	> 100 µM
NC1CC(N)c2c(Br)sc(Br)c21 (configuration not stated)	> 100 µM
COc1ccc2oc(=O)cc(C)c2c1	> 100 µM
C=CCNCCCN1C(=O)c2ccc3c4c(ccc(c24)C1=O)C(=O)N(CCCNCC=C)C3=O	3.63 µM
COc1ccc(N=Nc2ccc3oc(=O)c(C(=O)Nc4ccccc4)cc3c2)cc1	> 10 µM
Cc1nc2sc(C(=O)Nc3cccc4ccccc34)c(N)c2cc1C(=O)/C=C/c1ccccc1	1.92 µM
O=C1NC(=S)NC(=O)C1C(c1ccc([N+](=O)[O-])cc1)C1C(=O)NC(=S)NC1=O	> 100 µM
O=c1[nH]/c(=C/c2ccc(OCc3ccccc3)cn2)c(=O)[nH]/c1=C/c1ccc(Cl)cc1	> 100 µM
CCCCCCCCCCCCCCCCCCNc1ccn(C2OC(CO)C(O)C2O)c(=O)n1 (configuration not stated)	> 100 µM

###

Tested on: HL-60(TB) leukemia
protocol: NCI tumour cell line growth inhibition, 48 h; in the data active = GI50 below about 0.43 µM; inactive = the rest
Outcome codes: active, inactive

molecule	experimental.target	classification
CC(=O)NCCSC(=O)c1ccccc1	HL-60(TB) leukemia	active
CC(C)[C@@]12C[C@@H](OC(=O)COC(=O)/C=C/c3ccccc3)[C@@](C)(O1)[C@@H]1CC[C@@H](C)[C@H]1[C@@H]2OC(=O)/C=C/c1ccccc1	HL-60(TB) leukemia	inactive
CC1=CCC(OC(=O)C(C)(C)CCC(O)(C(=O)OC2(C(C)C)CCC3(C)OC3C2)C(C)C)(C(C)C)CC1 (centres undefined)	HL-60(TB) leukemia	active
Cc1ccc(/C=C2/SC(Nc3nc(-c4nc(NC5=NC(=O)/C(=C\c6ccc(C)cc6)S5)sc4C)c(C)s3)=NC2=O)cc1	HL-60(TB) leukemia	active
Cc1nc2cnc3cc(F)c(-c4ccc(Oc5ncccn5)cc4Cl)cc3c2n1[C@H]1CCN(C(=O)CO)C[C@@H]1F	HL-60(TB) leukemia	active
COc1ccc(-c2cnnn2-c2cc(OC)c3c(c2)OCO3)cc1	HL-60(TB) leukemia	active
CN(C)c1ccc(-c2cc(-c3ccc(Nc4nc(Nc5ccccc5)nc(Nc5ccc(Cl)cc5)n4)cc3)nc(N)n2)cc1	HL-60(TB) leukemia	inactive
COc1ccc2c(c1)c(-c1nc(-c3c[nH]c4ncccc34)cs1)cn2CCCCN1CCOCC1	HL-60(TB) leukemia	inactive
COc1ccc(C(=O)/C=C/c2c(C(F)(F)F)nc3sccn23)cc1OC	HL-60(TB) leukemia	inactive
NC(=O)NO	HL-60(TB) leukemia	inactive
N=c1c2c(-c3ccccc3)c(-c3ccccc3)n(Cc3ccccc3)c2ncn1CCCO	HL-60(TB) leukemia	inactive
COc1cc(C(O)c2nc3ccccc3s2)cc(OC)c1OC (centres undefined)	HL-60(TB) leukemia	inactive
CN1CCN(c2nc(NCCCCNc3ccnc4cc(Cl)ccc34)c3ccccc3n2)CC1	HL-60(TB) leukemia	inactive
C=C(C)[C@@H]1CC[C@]2(C(=O)NCCNCCNCCN)CC[C@]3(C)[C@H](CC[C@@H]4[C@@]5(C)CC[C@H](O)C(C)(C)[C@@H]5CC[C@]43C)[C@@H]12	HL-60(TB) leukemia	inactive

###

Consider the following compounds and their measured GI50 readings.
Test system: HS 578T breast
protocol: NCI tumour cell line growth inhibition, 48 h
property.label: GI50

test.smiles	obs.value
C=CC(=O)N1CCN(c2nc(OC[C@@H]3CCCN3C)nc3c2CCN(c2cccc4cccc(C)c24)C3)C[C@@H]1CC#N	1710 nM
C/C(=C\c1ccn(-c2ccc(N)c(F)c2)n1)[C@@H]1C[C@@H]2O[C@]2(C)CCC[C@H](C)[C@H](O)[C@@H](C)C(=O)C(C)(C)[C@@H](O)CC(=O)O1	10.8 nM
N#Cc1c(N)nc(N2CCOCC2)c(C#N)c1-c1ccc(Cl)cc1	40600 nM
COc1ccc(C/C(C)=C(\c2ccc(OCCN3CCOCC3)cc2)c2ccc(OC(=O)Cc3ccccc3)cc2)cc1	658 nM

###

System: SF-539 CNS
protocol: NCI tumour cell line growth inhibition, 48 h

compound	experimental.target	relation.operator	TGI / µM
O=c1c(Sc2c(O)c3ccccc3c3ccccc3c2=O)c(O)c2ccccc2c2ccccc12	SF-539 CNS	>	100
O=C1C=C[C@@]23C[C@@H](Nc4c(O)c5c6c(c42)=NCCC=6C=N5)SC3=C1	SF-539 CNS	=	9.58
CC(/C(=N/NC(=O)C(N)=O)c1c(Cl)ccc(Cl)c1O)C1(O)C(=O)Nc2ccccc21 (stereo not given)	SF-539 CNS	>	100
N#CCCSC1SC(=C2SC3=C(SCCS3)S2)SC1SCCC#N (stereo not given)	SF-539 CNS	>	100
Nc1ccc(C(=O)NN2C(=O)C(Cl)C2c2cc(Br)ccc2O)cc1 (stereo not given)	SF-539 CNS	>	100
COC(=O)C1=C(C(=O)OC)C2C(C)=CC(C)=CN2C(C#N)=C(SC)S1 (stereo not given)	SF-539 CNS	=	61.4
COc1ccc(C(Cc2cc(OC)c(OC)c(OC)c2)C(=O)O)cc1 (stereo not given)	SF-539 CNS	>	100
Cc1nc2sc(C(=O)Nc3cccc4ccccc34)c(N)c2cc1C(=O)/C=C/c1ccccc1	SF-539 CNS	=	1.16
O=c1[nH]/c(=C/c2ccc(OCc3ccccc3)cn2)c(=O)[nH]/c1=C/c1ccc(Cl)cc1	SF-539 CNS	>	100
O=C1/C(=C/c2ccc([N+](=O)[O-])o2)Oc2ccc(Br)cc21	SF-539 CNS	=	4.19

###

Test system: SNB-75 CNS
protocol: NCI tumour cell line growth inhibition, 48 h
property.label: log10 of TGI (log10 of the value in µM)

compound	log10 of TGI
CC1=CCC(OC(=O)C(C)(C)CCC(O)(C(=O)OC2(C(C)C)CCC3(C)OC3C2)C(C)C)(C(C)C)CC1 (stereo not given)	0.15
NC(=NC1CCCCCCC1)c1ccc(N2CCN(c3ccc(C(N)=NC4CCCCCCC4)cc3)CC2)cc1	1.20
COc1ccc(-c2cc(-c3ccccc3)nc(N3CCN(CCNc4ccnc5cc(Cl)ccc45)CC3)n2)cc1	1.46
COC(=O)c1cc(-c2cc(OC)c(OC)c(OC)c2)[nH]c1N/N=C/c1c(Cl)cccc1Cl	0.66
COc1cc(Cl)cc(N(O)C(C)=O)c1OCc1ccccc1	1.88
O=c1[nH]/c(=C/c2ccc(OCc3ccccc3)cn2)c(=O)[nH]/c1=C/c1ccc(Cl)cc1	1.40
C/C([O-])=C1\Cc2ccccc2C1=O.C/C([O-])=C1\Cc2ccccc2C1=O.CC[O-].CC[O-].[Ti+4]	1.66
COc1cc(C2c3cc4c(cc3[C@@H](NCCN3CCCCC3)C3COC(=O)[C@H]23)OCO4)cc(OC)c1O (stereo not given in full)	0.46

###

TGI reference
Tested on: HCT-15 colon
protocol: NCI tumour cell line growth inhibition, 48 h

molecule	readout.unit	relation.operator	TGI
CN(c1ccc(NC(=O)Nc2ccc(OC(F)(F)F)cc2)cc1)c1ccnc(Nc2cccc(S(N)(=O)=O)c2)n1	µM	=	15.3
NC(=O)c1oc([N+](=O)[O-])c(-c2ccccc2)c1-c1ccccc1	µM	=	35.4
CCN(CC)CCC1CCCCN1CC(=O)N1c2ccccc2NC(=O)c2ccccc21 (stereo not given)	µM	>	100
CS(=O)(=O)c1ccc(-c2cnc(N)c(C(=O)Nc3ccccc3)n2)cc1	µM	>	100
CCN1CCN(CC(=O)Nc2nc3ccc(NCc4ccc(Cl)cc4)cc3s2)CC1	µM	=	4.66
